Target Entity: Ba/F3 EGFR-V769_D770insASV (Homo sapiens, UniProt P00533, DUP767-769, cells depend on it)
Sequence (P00533 with tags, fused parts or gaps DUP767-769): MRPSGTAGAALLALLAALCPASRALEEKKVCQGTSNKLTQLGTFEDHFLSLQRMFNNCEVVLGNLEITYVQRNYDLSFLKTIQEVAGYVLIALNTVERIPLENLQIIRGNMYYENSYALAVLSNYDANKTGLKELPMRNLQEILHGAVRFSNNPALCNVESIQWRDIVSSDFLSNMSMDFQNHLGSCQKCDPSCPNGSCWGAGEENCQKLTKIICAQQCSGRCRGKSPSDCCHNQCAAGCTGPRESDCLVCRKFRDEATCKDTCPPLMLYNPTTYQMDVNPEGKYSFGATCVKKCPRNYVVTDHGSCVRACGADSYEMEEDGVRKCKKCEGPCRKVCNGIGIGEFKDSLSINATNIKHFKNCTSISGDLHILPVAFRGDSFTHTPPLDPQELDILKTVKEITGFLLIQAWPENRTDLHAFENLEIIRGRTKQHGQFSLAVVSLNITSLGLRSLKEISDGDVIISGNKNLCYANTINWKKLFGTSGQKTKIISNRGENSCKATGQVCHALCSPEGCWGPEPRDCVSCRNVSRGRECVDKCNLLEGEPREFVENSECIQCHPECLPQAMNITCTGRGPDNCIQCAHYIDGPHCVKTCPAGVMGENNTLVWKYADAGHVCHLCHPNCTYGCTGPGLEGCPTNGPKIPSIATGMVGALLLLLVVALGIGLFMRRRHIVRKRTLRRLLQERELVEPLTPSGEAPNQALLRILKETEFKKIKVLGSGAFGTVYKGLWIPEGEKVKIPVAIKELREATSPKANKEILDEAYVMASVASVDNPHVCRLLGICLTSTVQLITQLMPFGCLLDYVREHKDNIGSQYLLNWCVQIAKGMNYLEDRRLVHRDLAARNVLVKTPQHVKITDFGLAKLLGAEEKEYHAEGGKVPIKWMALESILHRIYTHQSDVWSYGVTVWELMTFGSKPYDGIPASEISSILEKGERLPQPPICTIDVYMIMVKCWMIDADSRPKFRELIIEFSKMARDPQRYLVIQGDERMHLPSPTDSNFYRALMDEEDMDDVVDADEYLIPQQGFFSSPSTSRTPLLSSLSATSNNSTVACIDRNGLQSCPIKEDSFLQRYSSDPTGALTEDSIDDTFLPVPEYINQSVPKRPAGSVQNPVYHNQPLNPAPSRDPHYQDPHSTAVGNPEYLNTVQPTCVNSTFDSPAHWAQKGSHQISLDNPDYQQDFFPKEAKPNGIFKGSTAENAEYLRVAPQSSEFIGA
Assay Summary: Proliferation experiment of Ba/F3 cell line, EGFR-V769_D770insASV (CellTiter-Glo)
Type: cell-based
Condition Set: cultured for 72 hrs with compound, CTG analysis, read-out: Ba/F3 EGFR-V769_D770insASV IC50
Measured Quantity: GI50

Which value of GI50 has been reported for `C=CC(=O)Nc1cc2c(Nc3ccnc(-c4ccccc4F)c3)ncnc2cc1N1CCC(N2CCN(C)CC2)CC1` in the records?
6.1 nM

For every item in the list below, what is its measured GI50?
1. C=CC(=O)Nc1cc2c(Nc3cccc(-c4ncccc4F)c3)ncnc2cc1OCCCN1CCN(C)CC1
2. C=CC(=O)Nc1cc2c(Nc3cccc(-c4ccc(F)cc4F)c3)ncnc2cc1OCCCN1CCN(C)CC1
3. C=CC(=O)Nc1cc2c(Nc3ccnc(-c4ccc(F)cc4F)c3)ncnc2cc1OCCN1CCOCC1

1. 29.3 nM
2. 28.4 nM
3. 4.4 nM

----------
Target Entity: Ba/F3 EGFR-V769_D770insASV (Homo sapiens, UniProt P00533, DUP767-769, cells depend on it)
Assay Summary: Proliferation experiment of Ba/F3 cell line, EGFR-V769_D770insASV (CellTiter-Glo)
Type: cell-based
Condition Set: cultured for 72 hrs with compound, CTG analysis, read-out: Ba/F3 EGFR-V769_D770insASV IC50
Procedure: Proliferation Experiment of Ba/F3 Cell Line (I) Reagents and Materials […] (IV) Experimental Procedures 1. Cell Culture and Inoculation: • (1) Cells in the logarithmic growth phase were harvested and counted using a platelet counter. […] Data were analyzed using GraphPad Prism 7.0 software and fitted data were regressed using non-linear S-curves to obtain dose-response curves from which IC50 values (in nM) were calculated.
Measured Quantity: log10 of GI50 (log10 of the value in nM)
Remember, log10 of GI50, in nM.

May I ask what log10 of GI50 has been recorded for `C=CC(=O)Nc1cc2c(Nc3cccc(-c4c(F)cccc4F)c3)ncnc2cc1OCCCN1CCOCC1` ?
1.65

Sample `C=CC(=O)Nc1cc2c(Nc3ccnc(-c4ccccc4F)c3)ncnc2cc1OCCCN1CCN(CC)CC1` — what was its log10 of GI50?
0.49

Query: log10 of GI50; subject: `C=C(F)C(=O)Nc1cc2c(Nc3ccnc(-c4ccccc4F)c3)ncnc2cc1N1CC(OC)C1`
1.48

Returns the measured log10 of GI50 for the input molecule. Input: `C=CC(=O)Nc1cc2c(Nc3cccc(-n4nccn4)c3)ncnc2cc1OCCCN1CCN(C)CC1`
1.35

Requested field: log10 of GI50. Item: `C=CC(=O)Nc1cc2c(Nc3cccc(-c4ccc(F)cc4)c3)ncnc2cc1OCCCN1CCOCC1`
1.95

log10 of GI50 for `C=CC(=O)Nc1cc2c(Nc3ccnc(-c4ccccc4F)c3)ncnc2cc1O[C@@H]1CCN(CCOC)C1` ?
0.53

# log10 of GI50 lookup, item `C=C(F)C(=O)Nc1cc2c(Nc3ccnc(-c4ccccc4F)c3)ncnc2cc1N1CC(F)C1`
1.61

Which log10 of GI50 value is on record for `C=CC(=O)Nc1cc2c(Nc3cccc(-c4ccc(F)cc4F)c3)ncnc2cc1OCCN1CCN(C)CC1` ?
2.24

Go through the items and report each one's log10 of GI50.
1. C=CC(=O)Nc1cc2c(Nc3cccc(-c4c(F)cccc4F)c3)ncnc2cc1OCCCN1CCN(CC(F)(F)F)CC1
2. C=CC(=O)Nc1cc2c(Nc3cccc(-c4c(F)cccc4F)c3)ncnc2cc1OCCCN1CCN(C(C)C)CC1
3. C=C(F)C(=O)Nc1cc2c(Nc3ccnc(-c4ccccc4F)c3)ncnc2cc1OCC(F)(F)F
4. C=CC(=O)Nc1cc2c(Nc3cccc(-c4ccc(F)cc4F)c3)ncnc2cc1OCCCN1CCC(F)(F)CC1
5. C=CC(=O)Nc1cc2c(Nc3ccnc(-c4c(F)cccc4F)c3)ncnc2cc1O[C@@H]1CCN(C)C1

2.05
1.49
1.41
2.34
0.81

Would you mind listing log10 of GI50 for each of the following molecules?
1. C=CC(=O)Nc1cc2c(Nc3ccnc(-c4ccccc4F)c3)ncnc2cc1O[C@@H]1CCN(C2COC2)C1
2. C=CC(=O)Nc1cc2c(Nc3cccc(-c4c(F)cccc4F)c3)ncnc2cc1OCCCN1CC[C@@H](N(C)C)C1

[0.52, 1.52]

----------
Target Entity: Ba/F3 EGFR-D770-N771ins_SVD (Homo sapiens, UniProt P00533, DUP768-770, cells depend on it)
Sequence (P00533 with tags, fused parts or gaps DUP768-770): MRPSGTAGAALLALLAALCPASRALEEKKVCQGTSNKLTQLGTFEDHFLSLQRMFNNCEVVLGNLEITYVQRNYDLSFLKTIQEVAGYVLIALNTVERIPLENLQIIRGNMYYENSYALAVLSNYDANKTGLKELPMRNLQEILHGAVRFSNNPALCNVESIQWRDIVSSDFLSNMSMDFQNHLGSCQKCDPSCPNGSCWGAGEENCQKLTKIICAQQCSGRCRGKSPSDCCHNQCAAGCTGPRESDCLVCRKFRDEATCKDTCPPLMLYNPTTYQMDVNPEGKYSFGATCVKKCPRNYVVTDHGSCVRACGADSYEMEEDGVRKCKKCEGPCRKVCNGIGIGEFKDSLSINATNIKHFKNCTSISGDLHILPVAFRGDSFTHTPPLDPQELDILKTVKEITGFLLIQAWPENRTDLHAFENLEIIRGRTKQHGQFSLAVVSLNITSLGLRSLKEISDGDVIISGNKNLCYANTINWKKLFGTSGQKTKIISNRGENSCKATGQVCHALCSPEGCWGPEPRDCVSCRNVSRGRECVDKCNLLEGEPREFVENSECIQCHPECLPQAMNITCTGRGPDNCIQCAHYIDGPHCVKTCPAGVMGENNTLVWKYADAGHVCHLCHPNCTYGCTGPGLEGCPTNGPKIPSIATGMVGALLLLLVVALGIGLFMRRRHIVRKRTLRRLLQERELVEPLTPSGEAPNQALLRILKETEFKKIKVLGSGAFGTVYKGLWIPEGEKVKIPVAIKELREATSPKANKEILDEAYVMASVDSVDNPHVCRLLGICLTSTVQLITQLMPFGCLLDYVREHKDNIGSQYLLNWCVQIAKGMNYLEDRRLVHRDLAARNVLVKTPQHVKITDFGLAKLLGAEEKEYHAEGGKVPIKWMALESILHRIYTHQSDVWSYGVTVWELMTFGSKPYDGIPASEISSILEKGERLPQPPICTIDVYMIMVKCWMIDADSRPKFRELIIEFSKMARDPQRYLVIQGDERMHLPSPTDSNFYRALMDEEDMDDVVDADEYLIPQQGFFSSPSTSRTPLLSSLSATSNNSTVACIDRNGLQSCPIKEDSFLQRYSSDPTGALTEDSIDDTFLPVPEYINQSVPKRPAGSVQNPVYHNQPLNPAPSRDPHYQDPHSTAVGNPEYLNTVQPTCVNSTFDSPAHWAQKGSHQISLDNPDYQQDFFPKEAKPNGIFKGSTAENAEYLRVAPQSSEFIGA
Assay Summary: Proliferation experiment of Ba/F3 cell line, EGFR-D770-N771ins_SVD (CellTiter-Glo)
Assay type: cell-based
Condition Set: cultured for 72 hrs with compound, CTG analysis, read-out: Ba/F3 EGFR-D770-N771ins_SVD IC50
Protocol: Proliferation Experiment of Ba/F3 Cell Line (I) Reagents and Materials […] (IV) Experimental Procedures 1. Cell Culture and Inoculation: • (1) Cells in the logarithmic growth phase were harvested and counted using a platelet counter. […] Data were analyzed using GraphPad Prism 7.0 software and fitted data were regressed using non-linear S-curves to obtain dose-response curves from which IC50 values (in nM) were calculated.
GI50 under 30 nM gets 1, anything at or over 30 nM gets -1.

Solved entries:
Hello, I'm reviewing records and need to know if GI50 of `C=CC(=O)Nc1cc2c(Nc3cccc(-c4ncc(F)cc4F)c3)ncnc2cc1OCCN1CCOCC1` is below 30 nM. Could you check?
-1

In plain terms, does `C=C(F)C(=O)Nc1cc2c(Nc3ccnc(-c4ccccc4F)c3)ncnc2cc1N1CCC1` come in under 30 nM for GI50?
1

Consider `C=CC(=O)Nc1cc2c(Nc3cccc(-c4c(F)cccc4F)c3)ncnc2cc1OCCCN1CCN(C(C)C)CC1` . Does its GI50 lie strictly below 30 nM?
1

Quick check: GI50 of `C=CC(=O)Nc1cc2c(Nc3cc(-c4ccc(F)cc4F)ccc3F)ncnc2cc1OCCN1CCOCC1` under 30 nM?
1

Dear reviewer, please state whether `C=CC(=O)Nc1cc2c(Nc3ccnc(-c4ccc(F)cc4F)c3)ncnc2cc1O[C@@H]1CCN(C)C1` has GI50 strictly beneath 30 nM.
1

GI50 under 30 nM? Item: `CN(C)C/C=C/C(=O)Nc1cc2c(Nc3ccnc(-c4ccccc4F)c3)ncnc2cc1O[C@@H]1CCN(C)C1`
1

Turning now to a further compound:
# strict comparison: is reported GI50 < 30 nM? input = `C=CC(=O)Nc1cc2c(Nc3cccc(-c4c(F)cc(F)cc4F)c3)ncnc2cc1OCCN1CCOCC1`
-1

----------
Target Entity: Ba/F3 EGFR-D770-N771ins_SVD (Homo sapiens, UniProt P00533, DUP768-770, cells depend on it)
Assay Summary: Proliferation experiment of Ba/F3 cell line, EGFR-D770-N771ins_SVD (CellTiter-Glo)
Format: cell-based
Condition Set: cultured for 72 hrs with compound, CTG analysis, read-out: Ba/F3 EGFR-D770-N771ins_SVD IC50
Measured Quantity: GI50 (nM)
Numbers only, in nM.

The following compounds have reported results that may help.
Missing value: GI50, Ba/F3 EGFR-D770-N771ins_SVD (Homo sapiens, UniProt P00533, DUP768-770, cells depend on it), entry C=C(F)C(=O)Nc1cc2c(Nc3ccnc(-c4ccccc4F)c3)ncnc2cc1N1CCC(N2CCOCC2)CC1 [Example 102] . Fill in?
6.1

Test system Ba/F3 EGFR-D770-N771ins_SVD (Homo sapiens, UniProt P00533, DUP768-770, cells depend on it); read-out GI50; what value for C=CC(=O)Nc1cc2c(Nc3cccc(-c4c(F)cccc4F)c3)ncnc2cc1OCCCN1CCN(C)CC1 [Example 5] ?
13

Notebook: pull reported GI50 for Ba/F3 EGFR-D770-N771ins_SVD (Homo sapiens, UniProt P00533, DUP768-770, cells depend on it), entry C=CC(=O)Nc1cc2c(Nc3cccc(-c4c(F)cccc4F)c3)ncnc2cc1OCCCN1CCN(C)CC1=O [Example 33]
38.3

// map C=CC(=O)Nc1cc2c(Nc3ccnc(-c4ccccc4F)c3)ncnc2cc1OCCCN1CCN(CCOC)CC1 [Example 123] to recorded GI50 (system: Ba/F3 EGFR-D770-N771ins_SVD (Homo sapiens, UniProt P00533, DUP768-770, cells depend on it))
1.6

Reported GI50 for Ba/F3 EGFR-D770-N771ins_SVD (Homo sapiens, UniProt P00533, DUP768-770, cells depend on it), given C=CC(=O)Nc1cc2c(Nc3ccnc(-c4ccccc4F)c3)ncnc2cc1N1CCC(N2CCOCC2)CC1 [Example 98] ?
2

Please give GI50, item by item, for the list that follows.
1. C=C(F)C(=O)Nc1cc2c(Nc3ccnc(-c4ccccc4F)c3)ncnc2cc1F [Example 93]
2. C=CC(=O)Nc1cc2c(Nc3ccc(F)c(-c4ccccn4)c3)ncnc2cc1OCCCN1CCN(C)CC1 [Example 50]
3. C=C(F)C(=O)Nc1cc2c(Nc3ccnc(-c4ccccc4F)c3)ncnc2cc1O[C@@H]1CCN(C)C1 [Example 66]
4. C=CC(=O)Nc1cc2c(Nc3ccc(F)c(-c4ccccc4F)c3)ncnc2cc1OCCCN1CCOCC1 [Example 38]
5. C=CC(=O)Nc1cc2c(Nc3cccc(-c4c(F)cccc4F)c3)ncnc2cc1OCCCN1CC[C@@H](N(C)C)C1 [Example 34]
6. C=C(F)C(=O)Nc1cc2c(Nc3ccnc(-c4ccccc4F)c3)ncnc2cc1O[C@@H]1CCN(C2CCOCC2)C1 [Example 121]

[14.5, 23.3, 5.9, 23.6, 21.5, 6.5]

Okay, here is my list. What is GI50 for each of these?
1. C=CC(=O)Nc1cc2c(Nc3cccc(-n4cccn4)c3)ncnc2cc1OCCN1CCOCC1 [Example 51]
2. C=CC(=O)Nc1cc2c(Nc3ccnc(-c4ccccc4F)c3)ncnc2cc1O[C@@H]1CCN(C2COC2)C1 [Example 114]
3. C=CC(=O)Nc1cc2c(Nc3cccc(-c4c(F)cccc4F)c3)ncnc2cc1OCCCN1CCOCC1 [Example 27]
4. C=CC(=O)Nc1cc2c(Nc3cc(-c4ccc(F)cc4F)ccc3F)ncnc2cc1OCCCN1CCN(C)CC1 [Example 20]

1: 40.6; 2: 1.1; 3: 15.2; 4: 36.5
